Parameter AD38 Viability Normalized Result (cmpd/DMSO %) at 10 μM: see the listing below.
Test system: AD38 cells
assay.comment: Viability of AD38 cells, Promega CellTiter-Glo
Type: cell-based
measurement.conditions: 6 days incubation, controls being 100%, Table 3, compounds of Group 1
quantity.kind: AD38 Viability Normalized Result (cmpd/DMSO %) at 10 μM

compound	unit.text	reported.result
O=C(NCc1cnc(C2CCC(O)CC2)s1)c1ccc2c(c1)NC(=O)c1ccccc1S2(=O)=O (stereo not drawn)	%	95
CC1(C)CCC(c2ncc(CNC(=O)c3ccc4c(c3)NC(=O)c3ccccc3S4(=O)=O)s2)C1 (stereo not drawn)	%	59
C[C@H](N)C(=O)N1CCC(c2ncc(CNC(=O)c3ccc4c(c3)NC(=O)c3ccccc3S4(=O)=O)s2)CC1.Cl	%	106
CC(C)(C)OC(=O)N1CCC(c2ncc(CNC(=O)c3ccc4c(c3)NC(=O)c3ccccc3S4(=O)=O)s2)CC1	%	98
O=C1CCC(c2ncc(CNC(=O)c3ccc4c(c3)NC(=O)c3ccccc3S4(=O)=O)s2)CC1	%	84
Cl.NC1CCC(Cc2ncc(CNC(=O)c3ccc4c(c3)NC(=O)c3ccccc3S4(=O)=O)s2)CC1 (stereo not drawn)	%	94
O=C(NCc1cnc(CN2CCOCC2)s1)c1ccc2c(c1)NC(=O)c1ccccc1S2(=O)=O	%	92
O=C1CCC(c2ncc(CNC(=O)c3ccc4c(c3)NC(=O)c3ccccc3S4(=O)=O)s2)C1 (stereo not drawn)	%	97
COC1(OC)CCC(c2ncc(CNC(=O)c3ccc4c(c3)NC(=O)c3ccccc3S4(=O)=O)s2)C1 (stereo not drawn)	%	93
